Measured values drawn from patent US5451582A for this set.

Endpoint: pIC50. System: CCK receptor (brain) (Cavia porcellus, UniProt H0VZC5). Items follow.
Sequence (H0VZC5 1-426): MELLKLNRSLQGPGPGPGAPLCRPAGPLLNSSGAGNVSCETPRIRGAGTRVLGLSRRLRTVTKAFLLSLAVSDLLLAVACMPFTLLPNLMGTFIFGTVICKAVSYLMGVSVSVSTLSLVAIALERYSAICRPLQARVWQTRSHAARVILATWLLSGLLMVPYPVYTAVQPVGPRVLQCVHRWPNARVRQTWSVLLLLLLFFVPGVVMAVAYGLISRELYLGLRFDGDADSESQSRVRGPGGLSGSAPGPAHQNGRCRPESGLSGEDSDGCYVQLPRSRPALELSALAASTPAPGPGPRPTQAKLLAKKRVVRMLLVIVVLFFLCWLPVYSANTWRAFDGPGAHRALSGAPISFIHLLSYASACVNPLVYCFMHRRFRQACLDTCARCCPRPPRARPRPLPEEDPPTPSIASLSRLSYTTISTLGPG
pIC50: −log10 of the molar value.
Quantity: pIC50

1. CC(C)CN1C(=O)C(NC(=O)Nc2cccc(-c3nn[nH]n3)c2)N=C(C(C)C)c2ccccc21 (racemic) [Example 2]
2. CC(C)CN1C(=O)C(NC(=O)Nc2cccc(C(=O)NS(C)(=O)=O)c2)N=C(C(C)(C)C)c2ccccc21 (racemic) [Example 3]
3. CC1=NC(NC(=O)Nc2cccc(-c3nn[nH]n3)c2)C(=O)N(C)c2ccccc21 (racemic) [Example 1]
stdin: In a descending ranking, list each entry from above by its pIC50, from the largest value down to the smallest. List labels; respect the requested ordering.
stdout: 1, 2, 3
(1: 7.77, 2: 7.49, 3: 6.98)
